# MEASURED_TARGET: human activated protein C (APC) (human, UniProt P04070 43-461)
# Sequence (P04070 other isoform, or with tags, fused parts or gaps): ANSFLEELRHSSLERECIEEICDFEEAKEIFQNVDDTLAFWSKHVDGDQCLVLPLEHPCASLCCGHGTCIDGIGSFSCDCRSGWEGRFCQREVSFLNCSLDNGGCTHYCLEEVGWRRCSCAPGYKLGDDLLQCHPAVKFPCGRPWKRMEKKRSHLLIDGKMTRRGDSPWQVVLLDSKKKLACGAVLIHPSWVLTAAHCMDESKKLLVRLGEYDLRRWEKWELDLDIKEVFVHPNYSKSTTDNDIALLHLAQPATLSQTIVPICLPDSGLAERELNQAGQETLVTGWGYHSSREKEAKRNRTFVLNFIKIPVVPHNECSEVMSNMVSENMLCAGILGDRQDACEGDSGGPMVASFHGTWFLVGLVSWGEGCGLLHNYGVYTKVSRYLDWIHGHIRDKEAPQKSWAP
# ASSAY: cell-based or functional assay
PROPERTY: APC plasma T1/2 (min; mean) (min)

>  <BINDER>
LP20 (SR16983-R4-P1-B07) (VHH, not shown: small tags and cut ends, Llama VHH purified from E. coli periplasm) VHH: QLQLVESGGGLVQAGGSLRLSCTASGSTVRVTAGGWYRQTPGNERELVADIDNGGSTTYADSVKGRFTISRDNAKNAVDLQMNSLKPEDTAVYRCFVIAIPDSAPRPRAYWGQGTEVTVSS

>  <VALUE_UNITS>
min

>  <ENDPOINT_VALUE>
85.6

$$$$
>  <BINDER>
LP18 (SR16983-R4-P1-A11) (VHH, not shown: small tags and cut ends, Llama VHH purified from E. coli periplasm) VHH: QLQLVESGGGLVQPGGSLRLSCAASGFTFSTKWMYWVRQGPGKGLERVAAIDAGGTSTYYADSVKGRFTISRDNSENTVYLQMNSLESADTAVYYCARSEGGLFRGRGTQVTVSA

>  <VALUE_UNITS>
min

>  <ENDPOINT_VALUE>
16.1

$$$$
>  <BINDER>
LP10 (SR16983-R3-P3-E06) (VHH, not shown: small tags and cut ends, Llama VHH purified from E. coli periplasm) VHH: QVQLVESGGGLVQAGGSLRLSCAASGTIESINDMGWYRQAPGKQRELVATVSSSGMTNYADSAKGRFTISRDNAKNTMYLQMNSLKPEDTAVYYCKAHISRSYYYDSLGYDYWGQGTQVTVSS

>  <VALUE_UNITS>
min

>  <ENDPOINT_VALUE>
29.3

$$$$
>  <BINDER>
LP3 (SR16983-R2-P4-E09) (VHH, not shown: small tags and cut ends, Llama VHH purified from E. coli periplasm) VHH: QVQLVESGGGLVQPGGSLTLSCAASGTIESINDMGWYRQAPGKQRELVAAITSGGSTNYADSVKGRFTISRDNAKNTVYLQMNSLKPEDTAVYYCNAEVKRHYYYDSAGYRYWGQGTQVTVSS

>  <VALUE_UNITS>
min

>  <ENDPOINT_VALUE>
28.8

$$$$

Just for reference, patent US20250163183A1 is where these values come from.
